Let's look at some molecules and their measured solubility kinetic.
# Particulars: buffer; pH 7.4; 200.0 µM

Cc1nc(SCc2ccc(F)cc2)c2oc3ccccc3c2n1
< 0.3 µg/mL

Now consider a different molecule.
So for `COc1ccccc1C(=O)NC(=O)Nc1cccc(Cl)c1` , the logged solubility kinetic turned out to be < 0.3 µg/mL

====

# Particulars: buffer; pH 7.4; 200.0 µM
// values below are reported solubility kinetic

Input `O=C(COC(=O)c1cc(S(=O)(=O)N2CCOCC2)ccc1F)NCc1ccc2c(c1)OCO2` . Output solubility kinetic: > 72.1 µg/mL

Memo: `Cc1ccc(C(=O)NCC(=O)OCC(=O)c2ccccc2)s1` , reported solubility kinetic: > 47.6 µg/mL

response.value for `O=C(NCCCn1ccnc1)Nc1ccc2c(c1)OCO2` (field: solubility kinetic) = > 43.2 µg/mL

Measured solubility kinetic, `Cl.O=S(=O)(NCCN1CCOCC1)c1cccs1` : > 46.9 µg/mL

solubility kinetic recorded for this molecule, `O=C(CN1CCCCC1)Nc1nc(-c2ccc(Cl)cc2)cs1` , is < 0.2 µg/mL

Just so you know, measured solubility kinetic for `COc1ccc(C(=O)COC(=O)c2ccccn2)c(OC)c1` came out at > 45.2 µg/mL

====

solubility kinetic by entry:
# Particulars: buffer; pH 7.4; 200.0 µM

COC(=O)C(Cc1c[nH]c2ccccc12)N1CCS(=O)(=O)CC1 (stereo not given)
> 50.5 µg/mL
O=C(COc1ccccc1[N+](=O)[O-])NCC1(N2CCOCC2)CCCCC1
> 56.6 µg/mL
O=C(Nc1ccccc1C(=O)N1CCCCCC1)c1ccccc1
> 48.4 µg/mL
N#CCc1cccnc1Sc1ccc(Cl)cc1
> 39.1 µg/mL

// switching to the query molecule
Note to self: solubility kinetic recorded for `CCN(CC)c1c([N+](=O)[O-])c(=O)oc2ccccc12` was > 39.3 µg/mL

====

# Particulars: buffer; pH 7.4; 200.0 µM
Let's look at some compounds and their measured solubility kinetic.

Observe how each entry below is paired with its result.
CC(Sc1ncccn1)C(=O)NC1CCCC1 (stereo not drawn)
> 37.7 µg/mL
O=C(c1ccccc1)c1ncc[nH]1
> 25.8 µg/mL

Okay, now this compound:
Field solubility kinetic (entry `CN1CCCN(c2ccc([N+](=O)[O-])nc2)CC1` ) reads > 35.4 µg/mL

====

Recorded measurements of solubility kinetic, one per entry
# Particulars: buffer; pH 7.4; 200.0 µM

Completed entries (count: 6):
O=C(NCc1ccc(F)cc1F)Nc1cnccc1C(F)(F)F
> 49.7 µg/mL
COc1ccc(NC(=O)Nc2cccs2)cn1
> 37.4 µg/mL
Cc1cc(C(=O)N2CCCC(Nc3ccc(F)cc3)C2)c(C)o1 (centres undefined)
> 47.5 µg/mL
CC(=O)Nc1ccc(SCC(=O)NC(=O)c2ccc(S(=O)(=O)N(C)C)cc2)cc1
> 65.3 µg/mL
Cc1ccsc1C(=O)OCC(=O)NC1CCS(=O)(=O)C1 (centres undefined)
> 47.6 µg/mL
O=C(CCNC(=O)c1ccccc1)NCCCc1ccccc1
> 46.6 µg/mL

Okay, next one:
The compound identified as `Cc1ccc(NC(=O)CSc2nc3sc(C)cc3c(=O)n2C)cc1` registered its solubility kinetic at < 0.3 µg/mL

====

# Particulars: buffer; pH 7.4; 200.0 µM
Experimental endpoint: solubility kinetic

COc1ccc(-n2c(-c3ccc(C)cc3)nc3ccccc3c2=O)cc1
< 0.4 µg/mL
COc1ccc(N(CC(=O)N2CCOCC2)S(C)(=O)=O)cc1OC
> 53.8 µg/mL
O=C1NC(c2ccccc2Cl)=N/C1=C/c1ccco1
8.5 µg/mL
CC12CN3CC(C)(CN(C1)C3c1ccc(Cl)cc1)C2 (stereo unspecified)
30.9 µg/mL
O=C1CSC(c2ccccc2)N1CCc1ccccc1 (stereo unspecified)
29.6 µg/mL
O=C(COC(=O)c1cc[n+]([O-])cc1)Nc1ccc([N+](=O)[O-])cc1
> 47.6 µg/mL
Cc1noc(C)c1C(=O)N(C)Cc1ccccc1
34 µg/mL
Cc1c(C(=O)Nc2cccc(S(=O)(=O)N3CCOCC3)c2)oc2ccc(Br)cc12
4.5 µg/mL

Looking up `CCN(CC(=O)NCc1ccc(F)cc1)C(=O)c1cc2ccccc2o1` , I see its solubility kinetic listed as 47.2 µg/mL

// `C=CCSc1nc(C)c(CCC(C)C)c(=O)[nH]1` : solubility kinetic value = 9.2 µg/mL

Lookup result for `Cc1cc(NC(=O)c2ccc(Cl)cc2Cl)n(CCC#N)n1` ; measured solubility kinetic: > 48.5 µg/mL

Entry `O=C(OCC(=O)c1ccc[nH]1)c1ccccc1` — recorded solubility kinetic = 32.2 µg/mL

Documented solubility kinetic of `Fc1ccc(F)c(CNc2ncnc3cc(Cl)ccc23)c1` : 1.3 µg/mL

Kindly note the recorded solubility kinetic for `O=C(Nc1ccc2c(c1)OCO2)c1cc(Cl)ccn1` , which is 6.1 µg/mL

Measured solubility kinetic, CC1CCCN(C(=O)C2CCN(C(=O)Nc3ccccc3)CC2)C1 (stereo unspecified) : > 49.4 µg/mL
